For each entry below, report its Ki value.
- assay_target: Sigma non-opioid intracellular receptor 1 (Homo sapiens)
- Sequence (Q99720 whole entry): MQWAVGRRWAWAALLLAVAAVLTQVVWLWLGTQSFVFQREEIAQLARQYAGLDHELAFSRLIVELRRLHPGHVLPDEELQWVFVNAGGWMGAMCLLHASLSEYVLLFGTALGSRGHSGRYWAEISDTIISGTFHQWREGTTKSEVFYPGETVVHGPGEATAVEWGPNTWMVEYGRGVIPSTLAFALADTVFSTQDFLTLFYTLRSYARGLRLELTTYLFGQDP
- assay_comment: PDSP Secondary Binding target: SIGMAR1 - Compounds are tested at 10 uM concentration, plate are incubated at room temperature in the dark for 90 minutes. Reaction are stopped by vacuum filtration onto 0.3% polyethyleneimine soaked filter mats using Filtermate harvester. Scintillation cocktail is then melted onto microwave-dried filters on a hot plate and the radio activity is counted in Microbia counter.
Give bare numbers, in nM.

Field: example entries. Status: answers known.
CCCCCCCCCCCCC/C=C/[C@@H](O)[C@@H](N)COP(=O)(O)O: 5980
Cc1cc(NC(=O)NCCN2CCC(O)(Cc3ccccc3)CC2)c2ccccc2n1 [PALOSURAN]: 1700
O=C(Cc1ccc(Cl)c(Cl)c1)N1CCCC[C@H]1CN1CCCC1: 11.7
Cc1ccccc1N1CCN(S(=O)(=O)C[C@]23CC[C@H](C[C@@H]2NC(=O)[C@@H](N)CCS(C)(=O)=O)C3(C)C)CC1: 70.1

From here, focus on the item given below.
Prompt: Query Ki on Sigma non-opioid intracellular receptor 1 (Homo sapiens) for CC[C@@H]1CN2C(=O)N(C)c3nc(-c4ccccc4)[nH]c3C2=N1
Response: 668
